This collection of values is drawn from ChEMBL document CHEMBL2176868.

molecular target: UniProt:P21554; assay: Displacement of [3H]CP55,940 from human CB1 receptor expressed in CHO cells at 10 uM after 2 hrs by liquid scintillation counter; assay type: cell-based
Sequence (P21554 whole entry): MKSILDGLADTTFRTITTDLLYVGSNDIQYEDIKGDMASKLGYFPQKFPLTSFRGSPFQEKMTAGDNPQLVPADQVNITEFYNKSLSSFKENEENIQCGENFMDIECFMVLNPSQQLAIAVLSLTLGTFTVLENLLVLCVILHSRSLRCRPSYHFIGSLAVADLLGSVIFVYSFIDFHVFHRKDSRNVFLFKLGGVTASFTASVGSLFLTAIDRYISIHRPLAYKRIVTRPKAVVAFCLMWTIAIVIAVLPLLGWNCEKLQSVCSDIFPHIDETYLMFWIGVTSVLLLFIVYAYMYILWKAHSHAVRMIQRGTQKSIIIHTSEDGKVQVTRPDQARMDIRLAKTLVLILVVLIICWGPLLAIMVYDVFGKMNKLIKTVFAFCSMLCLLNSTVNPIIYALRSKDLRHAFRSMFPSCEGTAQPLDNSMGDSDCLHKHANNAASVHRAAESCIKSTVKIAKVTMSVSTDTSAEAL
Some compounds, each annotated with its measured inhibition.

Guide cases for inhibition, answers given:
| Smiles Structure | inhibition |
| --- | --- |
| Cc1ccc(Cc2cc3c(O)cc(C)cc3oc2=O)cc1 | 30% |
| COc1cccc(Cc2cc3c(OC)cc(CO)cc3oc2=O)c1 | 8% |
| Cc1cc(O)c2cc(Cc3ccccc3C)c(=O)oc2c1 | 34% |
| COc1cccc(Cc2cc3c(OC)cc(CO[Si](c4ccccc4)(c4ccccc4)C(C)(C)C)cc3oc2=O)c1 | 12% |
| COc1cccc(Cc2cc3c(OC)cc(Br)cc3oc2=O)c1 | 38% |
| CCCCCCCC(C)(C)c1cc(OC)c2cc(Cc3ccccc3OC)c(=O)oc2c1 | 51% |
| CCCCC1(c2cc(OC)c3cc(Cc4ccccc4OC)c(=O)oc3c2)CCCCC1 | 42% |

The compound listed as `Cc1ccc(C(C)C)c2cc(Cc3ccccc3O)c(=O)oc12` shows inhibition equal to 31%

====

molecular target: Cannabinoid receptor 2 (Homo sapiens, UniProt P34972); test: Agonist activity at human CB2 receptor expressed in CHO cells assessed as inhibition of forskolin-stimulated cAMP accumulation using [3H]-cAMP after 5 mins by liquid scintillation counter
Sequence (P34972 whole entry): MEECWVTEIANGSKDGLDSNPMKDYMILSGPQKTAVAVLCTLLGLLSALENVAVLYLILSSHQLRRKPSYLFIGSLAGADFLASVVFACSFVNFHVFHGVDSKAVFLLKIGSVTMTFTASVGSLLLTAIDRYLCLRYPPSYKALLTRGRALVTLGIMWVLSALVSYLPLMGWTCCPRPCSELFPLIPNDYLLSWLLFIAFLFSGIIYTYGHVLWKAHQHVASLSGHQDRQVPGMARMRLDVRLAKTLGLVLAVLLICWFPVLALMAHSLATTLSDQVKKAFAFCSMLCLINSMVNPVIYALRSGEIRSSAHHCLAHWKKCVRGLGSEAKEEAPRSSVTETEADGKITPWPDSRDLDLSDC
pEC50: −log10 of the molar value.
We use 7 as the dividing line for pEC50: on or above the line is 1, below is -1.

Known results for compounds:
| Smiles Structure | Assigned Class |
| --- | --- |
| CCCCC1(c2cc(O)c3cc(Cc4ccccc4O)c(=O)oc3c2)CCCC1 | 1 |
| CCCCCc1cc(OC)c2cc(Cc3ccccc3C)c(=O)oc2c1 | -1 |
| CCCCC1(c2cc(O)c3cc(Cc4ccccc4O)c(=O)oc3c2)CCCCC1 | -1 |

Hi team, for `CCCCCc1cc(OC)c2cc(Cc3ccccc3OC)c(=O)oc2c1` , is the recorded pEC50 at or above 7? 1

Hi team, for `CCCCCCC(C)(C)c1cc(O)c2cc(Cc3ccccc3O)c(=O)oc2c1` , is the recorded pEC50 at or above 7? 1

====

target: Cannabinoid receptor 2 (Homo sapiens)
Rule: Ki below 1000 nM gives MET, anything at or above gives NOT MET.

| Smiles Structure | Assigned Class |
| --- | --- |
| CCCCCc1cc(O)c2cc(Cc3cccc(O)c3)c(=O)oc2c1 | NOT MET |
| CCCCC1(c2cc(OC)c3cc(Cc4ccccc4OC)c(=O)oc3c2)CCCC1 | NOT MET |
| CCCCCc1cc(O)c2cc(Cc3ccccc3)c(=O)oc2c1 | NOT MET |
| CCCCCc1cc(OC)c2cc(Cc3cccc(C)c3)c(=O)oc2c1 | MET |
| CCCCCc1cc(OC)c2cc(Cc3ccccc3)c(=O)oc2c1 | MET |

Now look at this one.
Strictly below 1000 nM in Ki? `CCCCCc1cc(OC)c2cc(Cc3ccccc3Cl)c(=O)oc2c1` MET

====

molecular target: Cannabinoid receptor 2 (Homo sapiens, UniProt P34972); test: Agonist activity at human CB2 receptor expressed in CHO cells assessed as inhibition of forskolin-stimulated cAMP accumulation using [3H]-cAMP at 1 uM after 5 mins by liquid scintillation counter relative to CP55940; type: functional, cell-based
Property Measured: inhibition (%)
Please reply with the bare figure in % and do not write the unit itself.

| Smiles Structure | inhibition / % |
| --- | --- |
| CCCCCc1cc(OC)c2cc(Cc3cccc(OC)c3)c(=O)oc2c1 | 93 |
| CCCCCCC(C)(C)c1cc(O)c2cc(Cc3ccccc3O)c(=O)oc2c1 | 76 |
| CCCCCCC(C)(C)c1cc(OC)c2cc(Cc3ccccc3OC)c(=O)oc2c1 | 30 |

The compound listed as `CCCCCc1cc(O)c2cc(Cc3ccccc3)c(=O)oc2c1` shows inhibition equal to 0

The compound listed as `CCCCC1(c2cc(O)c3cc(Cc4ccccc4O)c(=O)oc3c2)CCCC1` shows inhibition equal to 106

The compound listed as `CCCCCCC(C)(C)c1cc(OC)c2cc(Cc3ccccc3)c(=O)oc2c1` shows inhibition equal to 0
